Data provenance: BigSolDB 2.1

RECORDED CONDITIONS: in acetonitrile, 293.15 K
TEST READOUT: solubility (mole fraction)

>>> observed_value("Nc1nc(=O)[nH]cc1F")
"1.31e-05"

* * *

RECORDED CONDITIONS: in isopropanol, 318.15 K
TEST READOUT: solubility (mole fraction)

>>> observed_value("Nc1nc(=O)[nH]cc1F")
0.000643

* * *

RECORDED CONDITIONS: in n-butanol, 308.15 K
TEST READOUT: solubility (mole fraction)

>>> observed_value("Nc1nc(=O)[nH]cc1F")
0.000674

* * *

RECORDED CONDITIONS: in isopropanol, 308.15 K
TEST READOUT: solubility (mole fraction)

>>> observed_value("Nc1nc(=O)[nH]cc1F")
0.000461
